biological target: Protein cereblon/Non-receptor tyrosine-protein kinase TYK2 (Homo sapiens, UniProt P29597+Q96SW2); assay: PROTAC activity at CRBN/TYK2 in human Jurkat cells assessed as induction of degradation of TYK2 at 1 nM measured after 10 hrs by Western blot analysis relative to control; assay type: cell-based
Sequence (P29597 whole entry, looked up): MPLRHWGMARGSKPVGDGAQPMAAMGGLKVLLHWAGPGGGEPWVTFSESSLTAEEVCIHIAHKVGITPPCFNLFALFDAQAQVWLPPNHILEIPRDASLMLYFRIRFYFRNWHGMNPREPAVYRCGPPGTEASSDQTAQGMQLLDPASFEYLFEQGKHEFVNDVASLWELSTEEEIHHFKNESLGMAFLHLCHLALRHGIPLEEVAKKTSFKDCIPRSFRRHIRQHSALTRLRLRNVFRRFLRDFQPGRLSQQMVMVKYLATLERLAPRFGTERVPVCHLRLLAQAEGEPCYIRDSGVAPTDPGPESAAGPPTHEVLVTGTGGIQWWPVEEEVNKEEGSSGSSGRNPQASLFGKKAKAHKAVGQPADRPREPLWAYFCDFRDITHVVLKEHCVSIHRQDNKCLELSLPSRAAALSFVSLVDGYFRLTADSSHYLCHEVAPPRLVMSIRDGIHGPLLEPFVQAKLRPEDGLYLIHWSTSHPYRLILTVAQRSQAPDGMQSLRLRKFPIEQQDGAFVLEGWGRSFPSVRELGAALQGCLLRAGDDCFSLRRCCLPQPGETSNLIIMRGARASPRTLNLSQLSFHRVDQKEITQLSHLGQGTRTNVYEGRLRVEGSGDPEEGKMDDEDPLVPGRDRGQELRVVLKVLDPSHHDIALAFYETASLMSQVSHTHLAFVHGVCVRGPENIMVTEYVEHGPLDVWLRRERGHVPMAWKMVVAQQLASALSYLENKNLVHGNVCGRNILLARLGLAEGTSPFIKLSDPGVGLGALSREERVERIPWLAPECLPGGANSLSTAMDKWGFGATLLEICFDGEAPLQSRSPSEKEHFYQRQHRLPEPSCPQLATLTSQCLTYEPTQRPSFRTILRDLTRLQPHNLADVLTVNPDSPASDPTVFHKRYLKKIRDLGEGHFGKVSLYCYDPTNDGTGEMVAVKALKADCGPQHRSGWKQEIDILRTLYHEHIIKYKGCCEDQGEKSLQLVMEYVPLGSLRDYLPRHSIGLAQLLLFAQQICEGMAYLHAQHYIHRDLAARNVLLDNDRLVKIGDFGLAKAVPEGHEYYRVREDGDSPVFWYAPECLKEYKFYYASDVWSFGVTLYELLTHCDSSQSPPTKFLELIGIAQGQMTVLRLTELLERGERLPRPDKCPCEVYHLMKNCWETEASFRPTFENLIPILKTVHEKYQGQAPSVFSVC
Sequence (Q96SW2 whole entry, looked up): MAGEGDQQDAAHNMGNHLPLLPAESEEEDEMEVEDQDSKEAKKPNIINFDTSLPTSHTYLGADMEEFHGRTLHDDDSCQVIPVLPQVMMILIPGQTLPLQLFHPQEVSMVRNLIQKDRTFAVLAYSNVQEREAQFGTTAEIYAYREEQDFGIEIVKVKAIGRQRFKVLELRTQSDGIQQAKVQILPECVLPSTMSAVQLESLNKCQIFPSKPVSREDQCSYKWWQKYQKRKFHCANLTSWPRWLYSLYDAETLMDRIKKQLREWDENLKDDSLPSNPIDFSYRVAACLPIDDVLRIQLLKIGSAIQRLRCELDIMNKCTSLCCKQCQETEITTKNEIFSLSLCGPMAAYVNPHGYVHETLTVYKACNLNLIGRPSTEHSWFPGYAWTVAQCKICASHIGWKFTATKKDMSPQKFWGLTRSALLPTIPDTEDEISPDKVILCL
Activity calls are given as the source filed them. No cut-off for these calls is given here.
observable: Activity

Sample records with Activity:
| compound | result |
| --- | --- |
| CNC(=O)c1cnc(Nc2ccc(C(=O)N3CC4(CC(Nc5ccc6c(c5)C(=O)N(C5CCC(=O)NC5=O)C6=O)C4)C3)cn2)cc1Nc1cccc(-c2ncc(F)cn2)c1OC (centres undefined) | 17% |
| CNC(=O)c1cnc(Nc2ccc(C(=O)N3CC4(CCN(c5ccc6c(c5)C(=O)N(C5CCC(=O)NC5=O)C6=O)CC4)C3)cn2)cc1Nc1cccc(-c2ncc(F)cn2)c1OC (centres undefined) | 42% |
| CNC(=O)c1cnc(Nc2ccc(C(=O)NC3CCC(Nc4ccc5c(c4)C(=O)N(C4CCC(=O)NC4=O)C5=O)CC3)cn2)cc1Nc1cccc(-c2ncc(F)cn2)c1OC (centres undefined) | 63% |
| CNC(=O)c1cnc(Nc2ccc(C(=O)N3CC(N4CCN(c5ccc6c(c5)C(=O)N(C5CCC(=O)NC5=O)C6=O)CC4)C3)cn2)cc1Nc1cccc(-c2ncc(F)cn2)c1OC (centres undefined) | 44% |
| CNC(=O)c1cnc(Nc2ccc(C(=O)N3CCC4(CC3)CCN(c3ccc5c(c3)C(=O)N(C3CCC(=O)NC3=O)C5=O)CC4)cn2)cc1Nc1cccc(-c2ncc(F)cn2)c1OC (centres undefined) | inactive |
| CNC(=O)c1cnc(Nc2ccc(C(=O)N3CCC(CNc4ccc5c(c4)C(=O)N(C4CCC(=O)NC4=O)C5=O)CC3)cn2)cc1Nc1cccc(-c2ncc(F)cn2)c1OC (centres undefined) | 7% |

# input Would you mind telling me what Activity value was observed for CNC(=O)c1cnc(Nc2ccc(C(=O)N3CC4(C3)CN(c3ccc5c(c3)C(=O)N(C3CCC(=O)NC3=O)C5=O)C4)cn2)cc1Nc1cccc(-c2ncc(F)cn2)c1OC (centres undefined) ?
# output 46%

# input Would you mind telling me what Activity value was observed for CNC(=O)c1cnc(Nc2ccc(C(=O)N3CCN(C4CCN(c5ccc6c(c5)C(=O)N(C5CCC(=O)NC5=O)C6=O)CC4)CC3)cn2)cc1Nc1cccc(-c2ncc(F)cn2)c1OC (centres undefined) ?
# output inactive

# input Would you mind telling me what Activity value was observed for CNC(=O)c1cnc(Nc2ccc(C(=O)N3CCC(CN4CCN(c5ccc6c(c5)C(=O)N(C5CCC(=O)NC5=O)C6=O)CC4)CC3)cn2)cc1Nc1cccc(-c2ncc(F)cn2)c1OC (centres undefined) ?
# output 2%

====

assay: AUC (0 to infinity) in male ICR mouse at 10 mg/kg, po measured up to 24 hrs by LC-MS/MS analysis; type: ADME, organism-based; conditions: in vivo
observable: AUC(0-inf) (ng·h/mL)
Numbers only; they are read as ng·h/mL.

# input Would you mind telling me what AUC(0-inf) value was observed for CNC(=O)c1cnc(Nc2ccc(C(=O)N(C)C3CCN(c4ccc5c(c4)C(=O)N(C4CCC(=O)NC4=O)C5=O)CC3)cn2)cc1Nc1cccc(-c2ncc(F)cn2)c1OC (stereo unspecified) ?
# output 163

====

biological target: Non-receptor tyrosine-protein kinase TYK2 (Homo sapiens, UniProt P29597); assay: Binding affinity to TYK2 JH1 domain (unknown origin) by ADP-glo kinase assay
Sequence (P29597 whole entry, the tested form may be a part): as the sequence (P29597 whole entry, looked up) above
observable: IC50

# input Would you mind telling me what IC50 value was observed for CNC(=O)c1cnc(Nc2ccc(C(=O)NC3CCC(Nc4ccc5c(c4)C(=O)N(C4CCC(=O)NC4=O)C5=O)CC3)cn2)cc1Nc1cccc(-c2ncc(F)cn2)c1OC (stereo unspecified) ?
# output > 10 µM
